Just for reference, ChEMBL document CHEMBL1649231 is where these values come from.

Test system: Mammaliicoccus sciuri
Test: Antimicrobial activity against methicillin-susceptible coagulase-negative Staphylococcus sciuri assessed as resistant isolates after 24 hrs by broth microdilution method
Format: functional
hey, just use fulfilled if measured Activity is less than 30%, otherwise not fulfilled

Illustrative cases are given below, each with its answer.
Cc1onc(-c2ccccc2)c1C(=O)N[C@@H]1C(=O)N2[C@@H]1SC(C)(C)[C@@H]2C(=O)O [OXACILLIN] : fulfilled
CC[C@H]1OC(=O)[C@H](C)[C@@H](O[C@H]2C[C@@](C)(OC)[C@@H](O)[C@H](C)O2)[C@H](C)[C@@H](O[C@@H]2O[C@H](C)C[C@H](N(C)C)[C@H]2O)[C@](C)(O)C[C@@H](C)C(=O)[C@H](C)[C@@H](O)[C@]1(C)O [ERYTHROMYCIN] : fulfilled
CC1(C)S[C@@H]2[C@H](NC(=O)[C@H](N)c3ccccc3)C(=O)N2[C@H]1C(=O)O [AMPICILLIN] : not fulfilled
CN(C)[C@@H]1C(O)=C(C(N)=O)C(=O)[C@@]2(O)C(O)=C3C(=O)c4c(O)cccc4[C@@](C)(O)[C@H]3C[C@@H]12 [TETRACYCLINE] : fulfilled
CN[C@H](CC(C)C)C(=O)N[C@H]1C(=O)N[C@@H](CC(N)=O)C(=O)N[C@H]2C(=O)N[C@H]3C(=O)N[C@H](C(=O)N[C@H](C(=O)O)c4cc(O)cc(O)c4-c4cc3ccc4O)[C@H](O)c3ccc(c(Cl)c3)Oc3cc2cc(c3O[C@@H]2O[C@H](CO)[C@@H](O)[C@H](O)[C@H]2O[C@H]2C[C@](C)(N)[C@H](O)[C@H](C)O2)Oc2ccc(cc2Cl)[C@H]1O [VANCOMYCIN] : fulfilled

Identify whether the molecule C[C@H]1COc2c(N3CCN(C)CC3)c(F)cc3c(=O)c(C(=O)O)cn1c23.C[C@H]1COc2c(N3CCN(C)CC3)c(F)cc3c(=O)c(C(=O)O)cn1c23.O [LEVOFLOXACIN] records Activity below 30%.
fulfilled
